Target: T1, OX40 (antigen of the competitive ELISA of Example 5) (UniProt P43489 29-214)
T1 sequence (looked up): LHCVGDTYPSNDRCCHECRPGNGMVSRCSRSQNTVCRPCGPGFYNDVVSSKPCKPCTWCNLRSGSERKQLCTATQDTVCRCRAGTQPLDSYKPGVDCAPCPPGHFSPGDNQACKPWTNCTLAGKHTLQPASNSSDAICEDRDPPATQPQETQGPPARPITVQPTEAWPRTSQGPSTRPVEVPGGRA
Test: competitive ELISA; competitor PF-04518600
Quick reference: percentage of competition of the listed items.

Worked set:
>>> recorded_value("MAb053 (antibody, IgG2c, V domains shown) VH: QVQLKQSGPGLVQPSQSLSIICTVSGFSLSDYGVMWVRQSPGKGLEWLGVIWSGGSTDYNAAFTSRLSISRDNSKRQVIFKMNSLQAEDTAIHYCVRETMDYWGQGTSVTVS VL: DIQMTQTTSSLSASLGDRVTISCRASQDISNYLNWYQQRPDGTVKRLIYYTSRLHSGVPSRFSGSGSGTDYSLTISSLEQEDIATYFCQQAHTLPWTFGGGTKLEIK")
"93%"
>>> recorded_value("MAb058 (antibody, IgG1, V domains shown) VH: EVQLQQSGPVLVKPGAAVKMSCKASGYIFTDYYIHWVKLSRGESLEWIGLINPYNGGTNYNQQFTGKATLTVDKSSSTAYVELNSLTSGDSAVYYCVRRTGYFDYWGQGTTLTVSS VL: DVVMTQTPLSLPVSLGDQASISCRSSQSLVHSNGNTYLHWYLQKPGQSPKLLIYKVSNRFSGVPDRFSGSGSGTDFTLKISRVEAEDLGVYFCSQTTHVPYTFGGGTKLEIK")
"11%"

Specify reported percentage of competition for the binder shown: MAb055 (antibody, IgG1, V domains shown) VH: QVQLKQSGPGLLQPSQSLSITCTVSGFSLDEYGVHWFRQSPGKGLEWLGVIWSGGSTDYNAAFISRLSIRKDNSKSQIFFNMNSLQADDTAIYYCVREEWEYWGQGTTLTVS VL: DIQMTQTTSSLSASLGDRVTISCRPSQDIDNYLNWFQQRPDGTIKLLIYYTSRLHSGVPSRFSGSGSGTDYSLTINNLEQEDIATYFCQQAHTLPYTFGGGTKLEIK 95%
